src = ChEMBL document CHEMBL3885861

species on record: Rattus norvegicus; test: Open TG-GATES - Regimen: Single; assay type: toxicity, organism-based, Sprague-Dawley; set-up: regimen Single, gender Male, age 6 weeks; settings: in vivo, po, 0 mg/kg, 24 h, route gavage, dose level Control
recorded metric: TERMINAL_BW (g)
Field: numeric (g). Do not append units.

>  <compound>
Nc1c2c(nc3ccccc13)CCCC2

>  <recorded metric>
TERMINAL_BW

>  <unit symbol>
g

>  <quantitative result>
214.7

$$$$
>  <compound>
NC1=NC(=O)C(c2ccccc2)O1 (stereo not drawn)

>  <recorded metric>
TERMINAL_BW

>  <unit symbol>
g

>  <quantitative result>
216.7

$$$$
>  <compound>
CNC(=C[N+](=O)[O-])NCCSCc1ccc(CN(C)C)o1

>  <recorded metric>
TERMINAL_BW

>  <unit symbol>
g

>  <quantitative result>
228.8

$$$$
>  <compound>
CC(C)NNC(=O)c1ccncc1

>  <recorded metric>
TERMINAL_BW

>  <unit symbol>
g

>  <quantitative result>
216

$$$$
>  <compound>
CN1C(=O)CCS(=O)(=O)C1c1ccc(Cl)cc1 (stereo not drawn)

>  <recorded metric>
TERMINAL_BW

>  <unit symbol>
g

>  <quantitative result>
235.8

$$$$

# context switch: different compound, same TERMINAL_BW
## Task Name the reported TERMINAL_BW value associated with the compound CN(C)CCC(c1ccc(Cl)cc1)c1ccccn1 (stereo not drawn)
## Result 212.2

---

species on record: Rattus norvegicus; assay: Open TG-GATES - Regimen: Single; format: toxicity, organism-based, Sprague-Dawley; set-up: regimen Single, gender Male, age 6 weeks; conditions: in vivo, po, 1000 mg/kg, 3 h, tissue Plasma, route gavage, dose level High
recorded metric: RALB (g/dL)
Field: numeric (g/dL). Do not append units.

>  <chem smiles>
Cc1nnc2n1-c1ccc(Cl)cc1C(c1ccccc1Cl)=NC2

>  <unit symbol>
g/dL

>  <RALB>
2.4

$$$$
>  <chem smiles>
COC(=O)C1=C(C)NC(C)=C(C(=O)OC)C1c1ccccc1[N+](=O)[O-]

>  <unit symbol>
g/dL

>  <RALB>
2.5

$$$$

## Task Name the reported RALB value associated with the compound CN/C(=N/CCSCc1nc[nH]c1C)NC#N
## Result 3.3

---

List of Ret values.
species: Rattus norvegicus; assay: Open TG-GATES - Regimen: Single; assay type: toxicity, organism-based, Sprague-Dawley; design: regimen Single, gender Male, age 6 weeks; conditions: in vivo, po, 300 mg/kg, 6 h, tissue Blood, route gavage, dose level Middle
Field: numeric (%). Do not append units.

Past entries and their recorded results:
>  <chem smiles>
O=C(OC[C@H]1O[C@@H](OC(=O)c2cc(O)c(O)c(OC(=O)c3cc(O)c(O)c(O)c3)c2)[C@H](OC(=O)c2cc(O)c(O)c(OC(=O)c3cc(O)c(O)c(O)c3)c2)[C@@H](OC(=O)c2cc(O)c(O)c(OC(=O)c3cc(O)c(O)c(O)c3)c2)[C@@H]1OC(=O)c1cc(O)c(O)c(OC(=O)c2cc(O)c(O)c(O)c2)c1)c1cc(O)c(O)c(OC(=O)c2cc(O)c(O)c(O)c2)c1

>  <Ret / %>
9.6

$$$$
>  <chem smiles>
Cc1nnc2n1-c1ccc(Cl)cc1C(c1ccccc1Cl)=NC2

>  <Ret / %>
9.2

$$$$
>  <chem smiles>
CN/C(=N/CCSCc1nc[nH]c1C)NC#N

>  <Ret / %>
7.9

$$$$
>  <chem smiles>
CNC(=C[N+](=O)[O-])NCCSCc1ccc(CN(C)C)o1

>  <Ret / %>
6.9

$$$$

# context switch: different compound, same Ret
## Task Name the reported Ret value associated with the compound COC(=O)C1=C(C)NC(C)=C(C(=O)OC)C1c1ccccc1[N+](=O)[O-]
## Result 10

---

List of TERMINAL_BW values.
species: Rattus norvegicus; assay: Open TG-GATES - Regimen: Single; assay type: toxicity, organism-based, Sprague-Dawley; parameters: regimen Single, gender Male, age 6 weeks; conditions: in vivo, po, 100 mg/kg, 9 h, route gavage, dose level Low
Field: numeric (g). Do not append units.

>  <chem smiles>
CNC(=C[N+](=O)[O-])NCCSCc1ccc(CN(C)C)o1

>  <recorded metric>
TERMINAL_BW

>  <unit symbol>
g

>  <quantitative result>
213.4

$$$$

## Task Name the reported TERMINAL_BW value associated with the compound CN/C(=N/CCSCc1nc[nH]c1C)NC#N
## Result 209.3

## Task Name the reported TERMINAL_BW value associated with the compound COC(=O)C1=C(C)NC(C)=C(C(=O)OC)C1c1ccccc1[N+](=O)[O-]
## Result 204.8

## Task Name the reported TERMINAL_BW value associated with the compound Cc1nnc2n1-c1ccc(Cl)cc1C(c1ccccc1Cl)=NC2
## Result 190.1

## Task Name the reported TERMINAL_BW value associated with the compound O=C(OC[C@H]1O[C@@H](OC(=O)c2cc(O)c(O)c(OC(=O)c3cc(O)c(O)c(O)c3)c2)[C@H](OC(=O)c2cc(O)c(O)c(OC(=O)c3cc(O)c(O)c(O)c3)c2)[C@@H](OC(=O)c2cc(O)c(O)c(OC(=O)c3cc(O)c(O)c(O)c3)c2)[C@@H]1OC(=O)c1cc(O)c(O)c(OC(=O)c2cc(O)c(O)c(O)c2)c1)c1cc(O)c(O)c(OC(=O)c2cc(O)c(O)c(O)c2)c1
## Result 180.9

---

organism: Rattus norvegicus; test: Open TG-GATES - Regimen: Single; type: toxicity, organism-based, Sprague-Dawley; parameters: regimen Single, gender Male, age 6 weeks; conditions: in vivo, po, 1000 mg/kg, 6 h, route gavage, dose level High
List of TERMINAL_BW values.
Field: numeric (g). Do not append units.

>  <chem smiles>
O=C(OC[C@H]1O[C@@H](OC(=O)c2cc(O)c(O)c(OC(=O)c3cc(O)c(O)c(O)c3)c2)[C@H](OC(=O)c2cc(O)c(O)c(OC(=O)c3cc(O)c(O)c(O)c3)c2)[C@@H](OC(=O)c2cc(O)c(O)c(OC(=O)c3cc(O)c(O)c(O)c3)c2)[C@@H]1OC(=O)c1cc(O)c(O)c(OC(=O)c2cc(O)c(O)c(O)c2)c1)c1cc(O)c(O)c(OC(=O)c2cc(O)c(O)c(O)c2)c1

>  <quantitative result>
183.9

$$$$
>  <chem smiles>
CNC(=C[N+](=O)[O-])NCCSCc1ccc(CN(C)C)o1

>  <quantitative result>
213.4

$$$$

## Task Name the reported TERMINAL_BW value associated with the molecule Cc1nnc2n1-c1ccc(Cl)cc1C(c1ccccc1Cl)=NC2
## Result 193.6

## Task Name the reported TERMINAL_BW value associated with the molecule CN/C(=N/CCSCc1nc[nH]c1C)NC#N
## Result 211.9

## Task Name the reported TERMINAL_BW value associated with the molecule COC(=O)C1=C(C)NC(C)=C(C(=O)OC)C1c1ccccc1[N+](=O)[O-]
## Result 205.1

---

organism: Rattus norvegicus; test: Open TG-GATES - Regimen: Single; assay type: toxicity, organism-based, Sprague-Dawley; set-up: regimen Single, gender Male, age 6 weeks; conditions: in vivo, po, 300 mg/kg, 3 h, tissue Plasma, route gavage, dose level Middle
recorded metric: IP (mg/dL)
Field: numeric (mg/dL). Do not append units.

Past entries and their recorded results:
>  <chem smiles>
Cc1nnc2n1-c1ccc(Cl)cc1C(c1ccccc1Cl)=NC2

>  <quantitative result>
10.7

$$$$
>  <chem smiles>
COC(=O)C1=C(C)NC(C)=C(C(=O)OC)C1c1ccccc1[N+](=O)[O-]

>  <quantitative result>
9.5

$$$$
>  <chem smiles>
O=C(OC[C@H]1O[C@@H](OC(=O)c2cc(O)c(O)c(OC(=O)c3cc(O)c(O)c(O)c3)c2)[C@H](OC(=O)c2cc(O)c(O)c(OC(=O)c3cc(O)c(O)c(O)c3)c2)[C@@H](OC(=O)c2cc(O)c(O)c(OC(=O)c3cc(O)c(O)c(O)c3)c2)[C@@H]1OC(=O)c1cc(O)c(O)c(OC(=O)c2cc(O)c(O)c(O)c2)c1)c1cc(O)c(O)c(OC(=O)c2cc(O)c(O)c(O)c2)c1

>  <quantitative result>
10.6

$$$$
>  <chem smiles>
CNC(=C[N+](=O)[O-])NCCSCc1ccc(CN(C)C)o1

>  <quantitative result>
8.4

$$$$

# context switch: different compound, same IP
## Task Name the reported IP value associated with the compound CN/C(=N/CCSCc1nc[nH]c1C)NC#N
## Result 8.8

---

species on record: Rattus norvegicus; experiment: Open TG-GATES - Regimen: Single; type: toxicity, organism-based, Sprague-Dawley; design: regimen Single, gender Male, age 6 weeks; settings: in vivo, po, 100 mg/kg, 6 h, tissue Blood, route gavage, dose level Low
List of MCHC values.
Field: numeric (%). Do not append units.

Past entries and their recorded results:
>  <compound>
COC(=O)C1=C(C)NC(C)=C(C(=O)OC)C1c1ccccc1[N+](=O)[O-] [NIFEDIPINE]

>  <MCHC [%]>
32.6

$$$$
>  <compound>
CNC(=C[N+](=O)[O-])NCCSCc1ccc(CN(C)C)o1 [RANITIDINE]

>  <MCHC [%]>
34.8

$$$$
>  <compound>
Cc1nnc2n1-c1ccc(Cl)cc1C(c1ccccc1Cl)=NC2 [TRIAZOLAM]

>  <MCHC [%]>
32.6

$$$$
>  <compound>
O=C(OC[C@H]1O[C@@H](OC(=O)c2cc(O)c(O)c(OC(=O)c3cc(O)c(O)c(O)c3)c2)[C@H](OC(=O)c2cc(O)c(O)c(OC(=O)c3cc(O)c(O)c(O)c3)c2)[C@@H](OC(=O)c2cc(O)c(O)c(OC(=O)c3cc(O)c(O)c(O)c3)c2)[C@@H]1OC(=O)c1cc(O)c(O)c(OC(=O)c2cc(O)c(O)c(O)c2)c1)c1cc(O)c(O)c(OC(=O)c2cc(O)c(O)c(O)c2)c1 [TANNIC ACID]

>  <MCHC [%]>
33.5

$$$$

# context switch: different compound, same MCHC
## Task Name the reported MCHC value associated with the compound CN/C(=N/CCSCc1nc[nH]c1C)NC#N [CIMETIDINE]
## Result 34.8
